test system: DNBS induced colitis in Wistar rats; assay: DNBS induced colitis model in Wistar rats; format: in vivo, rat; conditions: mean; oral once a day Day 0 to Day 6; compounds 10 mg/kg, osalazine sodium 300 mg/kg
Reported Metric: Ulcer width (cm)
Supply the numeric figure in cm, leaving out any unit text.

# example entries with known answers
Molecule: CNCc1ccc(-c2nccs2)c(NS(=O)(=O)c2ccccc2)c1 [IA-51]
Reported Metric: Ulcer width
Experimental Result: 0.20
//
Molecule: CNCc1ccc(-c2cc[nH]n2)c(NS(=O)(=O)c2ccccc2)c1 [IA-55]
Reported Metric: Ulcer width
Experimental Result: 0.40
//
Molecule: NCc1ccc(NS(=O)(=O)c2ccsc2)c(-c2ccco2)c1 [ID-5]
Reported Metric: Ulcer width
Experimental Result: 0.12

GET /values?readout=Ulcer width&item= CNCc1ccc(NS(=O)(=O)c2ccsc2)c(-c2ccco2)c1 [IA-30]
0.19

GET /values?readout=Ulcer width&item= O=C([O-])c1cc(/N=N/c2ccc(O)c(C(=O)[O-])c2)ccc1O.[Na+].[Na+] [osalazine sodium, reference compound]
0.34

###

molecular target: chemokine receptor CCR9 (Homo sapiens); construct: expressed in transfected cells; assay: CCR9 antagonistic activity, calcium flow (Fluo-4, FlexStation), CCL25 agonist; assay type: cell-based; conditions: 100 μM; antagonistic mode, CCL25 150 nM; read-out: Inhibition rate (%) (100 μM)
Sequence (P51686 whole entry): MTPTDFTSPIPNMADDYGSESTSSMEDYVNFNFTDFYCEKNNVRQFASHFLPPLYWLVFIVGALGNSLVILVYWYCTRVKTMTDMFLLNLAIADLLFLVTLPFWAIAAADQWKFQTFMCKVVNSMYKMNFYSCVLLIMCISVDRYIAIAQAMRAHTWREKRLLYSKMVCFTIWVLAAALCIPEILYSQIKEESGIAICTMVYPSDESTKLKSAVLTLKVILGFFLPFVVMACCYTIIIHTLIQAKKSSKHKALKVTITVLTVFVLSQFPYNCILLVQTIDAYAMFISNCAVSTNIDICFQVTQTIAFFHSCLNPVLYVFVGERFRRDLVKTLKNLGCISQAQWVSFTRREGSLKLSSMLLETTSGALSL
Reported Metric: inhibition at 100 µM (%)

# example entries with known answers
Test Smiles: NCc1ccc(NS(=O)(=O)c2ccsc2)c(-c2cc[nH]n2)c1
Unit Symbol: %
inhibition at 100 µM: 11

Test Smiles: CNCc1ccc(-c2ccoc2)c(NS(=O)(=O)c2cccs2)c1
Unit Symbol: %
inhibition at 100 µM: 12

(1) CNCc1ccc(-c2ccco2)c(NS(=O)(=O)c2ccc(F)cc2)c1
(2) CNCc1ccc(-c2ccco2)c(NS(=O)(=O)c2ccccc2OC)c1
(3) CNCc1ccc(NS(=O)(=O)c2ccsc2)c(-c2ccco2)c1
Endpoint returns the given molecules ordered by ascending inhibition at 100 µM. Write the labels, ordered according to the request.
2, 3, 1

###

biological target: mTRPA1 (Mus musculus, UniProt Q8BLA8); test: IonWorks Barracuda (IWB) automated patch clamp, TRPA1 inhibitory activity; conditions: HEK293 cells stably expressing mTRPA1, current induced by AITC, amplitude at +100 mV; read-out: IC50 (inhibition activity on TRPA1)
Sequence (Q8BLA8 whole entry): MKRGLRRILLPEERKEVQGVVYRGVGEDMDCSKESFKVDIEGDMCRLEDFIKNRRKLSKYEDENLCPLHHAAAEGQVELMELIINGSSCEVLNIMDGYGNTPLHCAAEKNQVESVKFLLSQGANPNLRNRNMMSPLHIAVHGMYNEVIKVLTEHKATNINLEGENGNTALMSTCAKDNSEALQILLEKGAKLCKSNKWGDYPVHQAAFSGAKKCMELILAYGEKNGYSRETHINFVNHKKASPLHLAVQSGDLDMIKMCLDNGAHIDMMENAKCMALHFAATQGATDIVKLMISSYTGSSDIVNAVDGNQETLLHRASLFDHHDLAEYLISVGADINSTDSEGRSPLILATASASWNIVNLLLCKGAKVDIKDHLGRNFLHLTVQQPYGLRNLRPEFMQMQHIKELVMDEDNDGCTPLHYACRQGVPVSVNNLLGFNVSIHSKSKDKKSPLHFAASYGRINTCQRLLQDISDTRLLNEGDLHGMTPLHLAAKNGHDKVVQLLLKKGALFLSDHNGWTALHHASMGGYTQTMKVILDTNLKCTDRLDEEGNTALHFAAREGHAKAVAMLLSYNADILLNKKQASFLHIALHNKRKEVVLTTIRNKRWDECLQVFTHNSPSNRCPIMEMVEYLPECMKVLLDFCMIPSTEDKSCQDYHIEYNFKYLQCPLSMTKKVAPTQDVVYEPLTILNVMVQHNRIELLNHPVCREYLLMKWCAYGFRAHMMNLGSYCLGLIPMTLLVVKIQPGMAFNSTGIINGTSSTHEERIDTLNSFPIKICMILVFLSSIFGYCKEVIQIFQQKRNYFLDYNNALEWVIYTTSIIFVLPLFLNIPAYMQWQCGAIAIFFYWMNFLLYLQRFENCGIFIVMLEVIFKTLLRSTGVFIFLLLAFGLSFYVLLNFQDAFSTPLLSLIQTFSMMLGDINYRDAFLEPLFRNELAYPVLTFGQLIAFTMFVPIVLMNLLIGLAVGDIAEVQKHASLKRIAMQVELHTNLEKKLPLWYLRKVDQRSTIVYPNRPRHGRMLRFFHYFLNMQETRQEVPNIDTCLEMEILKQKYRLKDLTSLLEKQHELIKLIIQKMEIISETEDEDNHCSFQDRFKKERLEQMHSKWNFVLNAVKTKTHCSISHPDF
The entries below are paired with their reported IC50.

# example entries with known answers
Compound: CNCc1ccc(-c2ccco2)c(NS(=O)(=O)c2ccccc2)c1 [IA-4]
Measured On: mTRPA1 (Mus musculus, UniProt Q8BLA8)
IC50: 1 to 5 µM

Compound: CNCc1ccc(-c2ccco2)c(NS(=O)(=O)c2ccc(C)cc2)c1 [IA-10]
Measured On: mTRPA1 (Mus musculus, UniProt Q8BLA8)
IC50: 1 to 5 µM

Compound: CNCc1ccc(-c2ccoc2)c(NS(=O)(=O)c2cccs2)c1 [IA-44]
Measured On: mTRPA1 (Mus musculus, UniProt Q8BLA8)
IC50: 1 to 5 µM

Compound: CNCc1ccc(-c2ccc[nH]2)c(NS(=O)(=O)c2ccccc2)c1 [IA-50]
Measured On: mTRPA1 (Mus musculus, UniProt Q8BLA8)
IC50: 20 to 50 µM

Compound: CNCc1ccc(-c2ccco2)c(NS(=O)(=O)c2ccc(Br)s2)c1 [IA-23]
Measured On: mTRPA1 (Mus musculus, UniProt Q8BLA8)
IC50: 10 to 20 µM

Compound: CC(C)C(N)c1ccc(NS(=O)(=O)c2ccccc2)c(-c2ccco2)c1 (stereo not shown) [IU-5]
Measured On: mTRPA1 (Mus musculus, UniProt Q8BLA8)
IC50: < 1 µM

Compound: CNCCc1ccc(NS(=O)(=O)c2ccsc2)c(-c2ccco2)c1 [IS]
Measured On: mTRPA1 (Mus musculus, UniProt Q8BLA8)
IC50: 1 to 5 µM

Compound: CNCc1ccc(-c2ccco2)c(NS(=O)(=O)Cc2ccccc2)c1 [IA-24]
Measured On: mTRPA1 (Mus musculus, UniProt Q8BLA8)
IC50: 20 to 50 µM

GET /values?readout=IC50&item= CNCc1ccc(-c2ccsc2)c(NS(=O)(=O)c2ccccc2)c1 [IA-49]
1 to 5 µM

GET /values?readout=IC50&item= CNCc1ccc(-c2ccc(C)o2)c(NS(=O)(=O)c2ccccc2)c1 [IA-35]
1 to 5 µM
